Entry source: PubChem BioAssay AID1159580

Experiment: chemical genetic growth profiling, strain panel (AID 1159580);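 further: tested at 20 µM; growth read once vehicle control cultures reached saturation at 30 °C; 1 = growth at the plate median or of vehicle wells; lower values mean less growth of the strain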
Conditions: S. cerevisiae deletion strains, growth OD, locus YPL256C, strain CLN2, active compounds read low
Hit rate of the full screen: of about 5,500 compounds, about 2,000 (36%) were called active. Another 18% or so got no clear call; they are omitted. The list shows a part of the results.
Measurement Type: normalized growth
Just the number.

COc1ccc(-c2cc(=O)c3c(OC)c(OC)c(OC)c(OC)c3o2)cc1; 1.04
O=C1CN2Cc3c(ccc(Cl)c3Cl)N=C2N1; 1.01
COC(=O)C1=C(C)NC(C)=C(C(=O)OC)C1c1ccccc1[N+](=O)[O-]; 0.932

Please give the measured normalized growth for this compound: Nc1nnc(-c2cccc(Cl)c2Cl)c(N)n1
0.989

Please give the measured normalized growth for this compound: COc1cccc2c1cc([N+](=O)[O-])c1c(C(=O)O)cc3c(c12)OCO3
0.926

Please give the measured normalized growth for this compound: C[C@@H]1CC[C@@]2(OC1)OC1C(O)C3C4CC[C@H]5C[C@H](O[C@@H]6O[C@H](CO)[C@H](O[C@@H]7O[C@H](CO)[C@@H](O)[C@H](O[C@@H]8OC[C@@H](O)[C@H](O)[C@H]8O)[C@H]7O[C@@H]7O[C@H](CO)[C@H](O)[C@H](O[C@@H]8O[C@H](CO)[C@@H](O)[C@H](O)[C@H]8O)[C@H]7O)[C@H](O)[C@H]6O)[C@H](O)C[C@]5(C)C4CC[C@]3(C)C1[C@@H]2C (some centres not stated)
0.109

----------
Assay: chemical genetic growth profiling, strain panel (AID 1159580);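 further: tested at 20 µM; growth read once vehicle control cultures reached saturation at 30 °C; 1 = growth at the plate median or of vehicle wells; lower values mean less growth of the strain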
Conditions: S. cerevisiae deletion strains, growth OD, locus YKL160W, strain elf1, active compounds read low
The campaign covered roughly 5,500 compounds. About 2,000 (36%) were called active. Not shown: some 18% with an inconclusive outcome. The list shows a part of the results.
Field 'label' (enum: y / n). Set to y when normalized growth is strictly under 1; else n.

See these solved cases before continuing.
CCCCCCCCCCCCCCCC[n+]1ccccc1; y
C[n+]1cc2c3c(ccc2c2ccc4cc5c(cc4c21)OCO5)OCO3; y

Quick check: does CC1(C)O[C@@H]2CC3C4C[C@H](F)C5=CC(=O)C=C[C@]5(C)[C@@]4(F)[C@@H](O)C[C@]3(C)[C@]2(C(=O)CO)O1 (some centres undefined) have normalized growth under 1?
n

Quick check: does COC(=O)C1=C(C)NC(C)=C(C(=O)OC)C1c1ccccc1[N+](=O)[O-] have normalized growth under 1?
y

----------
Each item that follows carries a reported normalized growth.
Assay: chemical genetic growth profiling, strain panel (AID 1159580);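 further: tested at 20 µM; growth read once vehicle control cultures reached saturation at 30 °C; 1 = growth at the plate median or of vehicle wells; lower values mean less growth of the strain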
Settings: S. cerevisiae deletion strains, growth OD, locus YDL040C, strain nat1, active compounds read low
In all, about 5,500 compounds went through this assay and about 2,000 (36%) were called active. Inconclusive results (about 18%) are left out. Some of the results follow.
Just the number.

The following compounds have reported results that may help.
CC(=O)O[C@H]1C[C@@]2(C)[C@H](c3ccoc3)OC(=O)[C@H]3O[C@]32[C@@]2(C)C1[C@]1(C)C(C[C@H]2OC(C)=O)C(C)(C)[C@H](OC(C)=O)C[C@@H]1OC(C)=O (some centres undefined); 0.99
N[C@@H]1CONC1=O; 0.971
COCCOC(=O)C1=C(C)NC(C)=C(C(=O)OC(C)C)C1c1cccc([N+](=O)[O-])c1 (centres undefined); 0.999

Could you now look at the following compound, please?
Please give the measured normalized growth for this compound: CC(=O)O[C@@H]1CC2C(C)(C)C(=O)CC[C@]2(C)C2CC[C@@]3(C)[C@H](c4ccoc4)OC(=O)C4OC43[C@@]21C (some centres undefined)
0.976
